# testedTarget: GDP-loaded KRAS (1-169) G12C, C51S, C80L, C118S (Homo sapiens, UniProt P01116, C118S/C51S/C80L/G12C)
# Construct: GDP-loaded KRAS (1-169) G12C, C51S, C80L, C118S
# experimentSummary: Mass Spectrometry Reactivity Assay (MSRA): covalent adduct of compound and KRAS G12C, Percent Modification
# Type: binding
# conditionInfo: 5.0 μM compound, 0.017 hr
Mark each entry 1 (yes) if its MSRA (% modification) 5.0 μM 0.017 hr sits below 70%, and 0 (no) for all others.

molecule	qualitativeLabel
C#CCCN1C[C@@H](OC)[C@H](Oc2nc(N3CCN(C(=O)C=C)CC3)c3cc(Cl)nc(Oc4c(Cl)c(F)cc5[nH]ncc45)c3n2)C1 [Example 39G]	0 (no)
C=CC(=O)N1CCN(c2nc(O[C@@H]3CN(C)C[C@H]3O)nc3c(Oc4c(Cl)c(F)cc5[nH]ncc45)nc(Cl)cc23)CC1 [Example 37G]	1 (yes)
C=CC(=O)N1CCN(c2nc(Oc3cccc4c3CCN(C)C4)nc3c(Oc4c(Cl)ccc5[nH]ncc45)nccc23)CC1 [Example 48I]	1 (yes)
C=CC(=O)N1CCN(c2nc(OC[C@H]3CN(C)C[C@@H]3OC)nc3c(Oc4c(Cl)c(F)cc5[nH]ncc45)nc(Cl)cc23)CC1 [Example 18G]	1 (yes)
C=CC(=O)N1CCN(c2nc(O[C@@H]3CN(C)C[C@H]3C)nc3c(Oc4c(Cl)c(F)cc5[nH]ncc45)nccc23)CC1 (racemic) [Example 24I]	1 (yes)
C=CC(=O)N1CCN(c2nc(O[C@@H]3CN(C)C[C@H]3OC)nc3c(Oc4c(Cl)c(Cl)cc5[nH]ncc45)nc(Cl)cc23)CC1 [Example 29G]	0 (no)
C=CC(=O)N1CCN(c2nc(O[C@@H]3CN(C)C[C@H]3OCC)nc3c(Oc4c(Cl)c(F)cc5[nH]ncc45)nc(Cl)cc23)CC1 [Example 27G]	1 (yes)
C=CC(=O)N1CCN(c2nc(O[C@@H]3CCN(C)C[C@H]3C)nc3c(Oc4c(Cl)c(F)cc5[nH]ncc45)nccc23)CC1 (racemic) [Example 29I]	1 (yes)
C=CC(=O)N1CCN(c2nc(O[C@@H]3CN(C)C[C@H]3OC)nc3c(Oc4c(Cl)c(F)cc5[nH]ncc45)nc(Cl)cc23)CC1 [Example 24G]	0 (no)
[2H]C([2H])([2H])N1C[C@@H](OC)[C@H](Oc2nc(N3CCN(C(=O)C=C)CC3)c3ccnc(Oc4c(Cl)c(F)cc5[nH]ncc45)c3n2)C1 [Example 56I]	0 (no)
C=CC(=O)N1CCN(c2nc(O[C@@H]3CN(C(C)(C)C)C[C@H]3OC)nc3c(Oc4c(Cl)c(F)cc5[nH]ncc45)nccc23)CC1 [Example 52I]	0 (no)
C=CC(=O)N1CCN(c2nc(OC[C@@H]3CCCN3C)nc3c(Oc4c(Cl)c(C)cc5[nH]ncc45)nc(Cl)cc23)CC1 [Example 06G]	1 (yes)

###

List of log10(IC50) values.
# testedTarget: KRAS G12C (Homo sapiens, UniProt P01116, G12C)
# experimentSummary: Cell Activity Assay: accumulation of GDP-bound KRAS G12C in MIAPaCa-2 cells (Raf-1 RBD capture, MSD readout)
# Format: cell-based
# Set-up: endogenous in cells; host or cells: MIAPaCa-2
# conditionInfo: 6 hours, assay limit is 30.00
parameterMeasured: log10(IC50) (log10 of the value in µM)

molecule	testedTarget	log10(IC50)
C=CC(=O)N1CCN(c2ncnc3c(Oc4c(C)ccc5[nH]ncc45)cccc23)CC1 [Example 01C]	KRAS G12C (Homo sapiens, UniProt P01116, G12C)	0.77
C=CC(=O)N1CCN(c2nc(OC[C@H]3CCCN3C)nc3c(Oc4c(C)c(Cl)cc5[nH]ncc45)cccc23)CC1 [Example 21E]	KRAS G12C (Homo sapiens, UniProt P01116, G12C)	-0.74
C#CCCN1C[C@@H](OC)[C@H](Oc2nc(N3CCN(C(=O)C=C)CC3)c3ccnc(Oc4c(Cl)c(F)cc5[nH]ncc45)c3n2)C1 [Example 44I]	KRAS G12C (Homo sapiens, UniProt P01116, G12C)	-1.49
C=CC(=O)N1CCN(c2ncnc3c(Oc4c(C)ccc5[nH]ncc45)nc(Cl)cc23)CC1 [Example 09A]	KRAS G12C (Homo sapiens, UniProt P01116, G12C)	0.27
C=CC(=O)N1CCN(c2nc(N(C)CCC(=O)NC)nc3c(Oc4c(C)ccc5[nH]ncc45)cccc23)CC1 [Example 14F]	KRAS G12C (Homo sapiens, UniProt P01116, G12C)	1.46
C=CC(=O)N1CCN(c2ncnc3c(Oc4c(Cl)c(F)cc5[nH]ncc45)nc(Cl)cc23)[C@@H](CO)C1 [Example 38A]	KRAS G12C (Homo sapiens, UniProt P01116, G12C)	-0.27
C=CC(=O)N1CCN(c2nc(OC[C@H]3C[C@@H](F)CN3C)nc3c(Oc4c(Cl)c(F)cc5[nH]ncc45)nc(Cl)cc23)CC1 [Example 22G]	KRAS G12C (Homo sapiens, UniProt P01116, G12C)	-1.14

###

# testedTarget: KRAS G12C (Homo sapiens, UniProt P01116, G12C)
# experimentSummary: Cell Activity Assay: accumulation of GDP-bound KRAS G12C in MIAPaCa-2 cells (Raf-1 RBD capture, MSD readout)
# Assay type: cell-based
# Set-up: endogenous in cells; host or cells: MIAPaCa-2
# conditionInfo: 6 hours, assay limit is 30.00
parameterMeasured: log10(IC50) (log10 of the value in µM)

molecule	testedTarget	measuredNumber
C=CC(=O)N1CCN(c2nc(NCC3CC(=O)N(C)C3)nc3c(Oc4c(C)ccc5[nH]ncc45)cccc23)CC1 (centres unmarked) [Example 04F]	KRAS G12C (Homo sapiens, UniProt P01116, G12C)	0.86
C=CC(=O)N1CCN(c2ncnc3c(Oc4c(Cl)c(F)cc5[nH]ncc45)cccc23)C[C@H]1C [Example 17C]	KRAS G12C (Homo sapiens, UniProt P01116, G12C)	0.41
C=CC(=O)N1CCN(c2nc(O[C@@H]3COC[C@H]3N(C)C)nc3c(Oc4c(Cl)c(F)cc5[nH]ncc45)nc(Cl)cc23)CC1 (racemic) [Example 30G]	KRAS G12C (Homo sapiens, UniProt P01116, G12C)	-1.59
C=CC(=O)N1C[C@H](C)N(c2ncnc3c(Oc4c(Cl)c(F)cc5[nH]ncc45)nc(Cl)cc23)C[C@H]1C [Example 35A]	KRAS G12C (Homo sapiens, UniProt P01116, G12C)	0.63
C=CC(=O)N1CCN(c2nc(O[C@@H]3CN(C)C[C@H]3OC)nc3c(Oc4c(Cl)c(F)cc5[nH]ncc45)nc(C)cc23)CC1 [Example 01K]	KRAS G12C (Homo sapiens, UniProt P01116, G12C)	-1.19
C=CC(=O)N1CCN(c2nc(N(C)CCC(=O)N(C)C)nc3c(Oc4c(C)ccc5[nH]ncc45)cccc23)CC1 [Example 05F]	KRAS G12C (Homo sapiens, UniProt P01116, G12C)	1.45
C=CC(=O)N1CCN(c2nc(OC[C@@H]3CCCN3C)nc3c(Oc4c(Cl)c(F)cc5[nH]ncc45)cccc23)CC1 [Example 16E]	KRAS G12C (Homo sapiens, UniProt P01116, G12C)	-0.38
C=CC(=O)N1CCN(c2nc(OC[C@@H]3CCCN3C)nc3c(Oc4c(C)ccc5[nH]ncc45)cccc23)CC1 [Example 07E]	KRAS G12C (Homo sapiens, UniProt P01116, G12C)	-0.64
C=CC(=O)N1CCN(c2nc(OC[C@@H]3C[C@@H](OC)CN3C)nc3c(Oc4c(Cl)c(F)cc5[nH]ncc45)nccc23)CC1 [Example 13H]	KRAS G12C (Homo sapiens, UniProt P01116, G12C)	-0.51
C=CC(=O)N1CCN(c2nc(N3C[C@@](C)(O)[C@@H]3C)nc3c(Oc4c(Cl)c(F)cc5[nH]ncc45)nccc23)CC1 [Example 06J]	KRAS G12C (Homo sapiens, UniProt P01116, G12C)	-0.20
C=CC(=O)N1CCN(c2ncnc3c(Oc4c(F)c(Cl)cc5[nH]ncc45)nc(Cl)cc23)CC1 [Example 34A]	KRAS G12C (Homo sapiens, UniProt P01116, G12C)	0.11
C=CC(=O)N1CCN(c2nc(Oc3cccnc3)nc3c(Oc4c(Cl)c(F)cc5[nH]ncc45)nccc23)CC1 [Example 13I]	KRAS G12C (Homo sapiens, UniProt P01116, G12C)	-0.11
C=CC(=O)N1CCN(c2nc(OCC3CCCCN3C)nc3c(Oc4c(C)ccc5[nH]ncc45)cccc23)CC1 (centres unmarked) [Example 21F]	KRAS G12C (Homo sapiens, UniProt P01116, G12C)	-0.55
